These measurements were taken from patent US6462193B1.

Molecular target: HIV protease (Human immunodeficiency virus type 1 group M subtype B)
Construct: a backbone engineered HIV-1 protease was prepared by total synthesis; made in house; host or cells: total chemical synthesis (no expression host)
Assay type: biochemical, HIV-1
measured.attribute: inhibition of the HIV protease (in words)

These recorded examples may help you get a feel for the data.
C[N+]1([O-])C[C@H](OCc2cccc(F)c2)[C@H](O)[C@@H](O)[C@@H](OCc2cccc(F)c2)C1 (some centres unmarked) [Compound 65a]: inhibit
C[N+]1([O-])C[C@H](OCc2cc(F)cc(F)c2)[C@H](O)[C@@H](O)[C@@H](OCc2cc(F)cc(F)c2)C1 (some centres unmarked) [Compound 65b]: inhibit
O[C@H]1[C@H](O)[C@@H](O)CN(Cc2ccccc2)C[C@@H]1O: not inhibitors
CN1C[C@H](OCc2cccc(F)c2)[C@H](O)[C@@H](O)[C@@H](OCc2cccc(F)c2)C1 [Compound 64a]: inhibit
O[C@@H]1[C@@H](O)[C@@H](OCc2cc(F)cc(F)c2)CNC[C@@H]1OCc1cc(F)cc(F)c1 [Compound 60b]: inhibit

// query Consider the compound shown here: O[C@@H]1[C@@H](O)[C@@H](OCc2cccc(F)c2)CNC[C@@H]1OCc1cccc(F)c1 [Compound 60a] What is its recorded inhibition of the HIV protease (in words)?
// result inhibit

// query Consider the compound shown here: O[C@H]1[C@H](O)[C@H](O)CN(Cc2ccccc2)C[C@H]1O What is its recorded inhibition of the HIV protease (in words)?
// result not inhibitors

// query Consider the compound shown here: CN1C[C@H](OCc2cc(F)cc(F)c2)[C@H](O)[C@@H](O)[C@@H](OCc2cc(F)cc(F)c2)C1 [Compound 64b] What is its recorded inhibition of the HIV protease (in words)?
// result inhibit
